Values compiled from patent US6969711B2.

This section presents compounds with their documented melting point values.

structuresmiles=CC(C)c1cc(O)cc(C(C)C)c1NC(=O)CN1CCN(CCCSc2nc3ccccc3o2)CC1 measurementtype="melting point" result="201 to 203 °C"
structuresmiles=COc1cc(C(C)C)c(NC(=O)CN2CCN(CCSc3nc4cccc(C(C)=O)c4o3)CC2)c(C(C)C)c1 measurementtype="melting point" result="185 to 186 °C"
structuresmiles=CC(C)c1cccc(C(C)C)c1NC(=O)CN1CCN(CCOc2nc3ccccc3[nH]2)CC1 measurementtype="melting point" result="205 to 206 °C"

Q: Could you please provide reported melting point for "CC(C)c1cc(C(C)C)c(NC(=O)CN2CCN(CCCSc3nc4ccccc4s3)CC2)c(C(C)C)c1" ? Thanks!
Result: 107 to 108 °C

Q: Could you please provide reported melting point for "Cc1cc(C)c(NC(=O)CN2CCN(CCSc3nc4ccccc4o3)CC2)c(C)n1" ? Thanks!
Result: 159 to 160 °C

====

This section presents compounds with their documented IC50 values.
tested on: J774 cells; assay: ACAT inhibitory action (anti-foaming action) in J774 cells; type: cell-based; conditions: Mus musculus, 10 μg/ml 25-OH cholesterol, 18 hours, cholesterol ester per protein, read-out: Enzyme (J774) IC50
Record the value in nM, omitting the unit from your answer.

Answered cases to consult:
compound="COC(=O)c1cccc2nc(SCCCN3CCN(CC(=O)Nc4c(C(C)C)cccc4C(C)C)CC3)oc12 [Example 10]" measurementtype=IC50 unittext=nM measurednumber=270
compound="CCCCCCCCCN(CC(C)(C)C)C(=O)N[C@H]1CCCC[C@@H]1OC(=O)CCNC(=O)C1OC(C)(C)OCC1(C)C (stereo partly drawn) [Control 3, reference compound]" measurementtype=IC50 unittext=nM measurednumber=320

Q: Could you please provide reported IC50 for COC(=O)c1cccc2oc(SCCN3CCN(CC(=O)Nc4c(C(C)C)cccc4C(C)C)CC3)nc12 [Example 5] ? Thanks!
Result: 100

====

measurementType: melting point

Answered cases to consult:
compound="COc1ccc(C(C)C)c(NC(=O)CN2CCN(CCCSc3nc4c(C)c(Cl)cc(C(C)C)c4o3)CC2)c1C(C)C [Example 110]" result="126 to 127 °C"
compound="COc1cc(C(C)C)c(NC(=O)CN2CCN(CCCSc3nc4ccccc4o3)CC2)c(C(C)C)c1 [Example 119]" result="129 to 130 °C"
compound="CC(C)c1cccc(C(C)C)c1NC(=O)NCCN1CCN(CCSc2nc3ccccc3[nH]2)CC1 [Example 80]" result="120 to 122 °C"
compound="CC(C)c1ccc([N+](=O)[O-])c(C(C)C)c1NC(=O)CN1CCN(CCCSc2nc3ccccc3o2)CC1 [Example 67]" result="156 to 158 °C"
compound="CCSc1cc(C)nc(SCC)c1NC(=O)CN1CCN(CCSc2nc3cccc(C(=O)OC)c3o2)CC1 [Example 35]" result="118 to 119 °C"

Q: Could you please provide reported melting point for CCCCCCCN(CCN1CCN(CCSc2nc3cccc(C(=O)OC)c3o2)CC1)C(=O)Nc1c(C(C)C)cccc1C(C)C [Example 17] ? Thanks!
Result: 125 to 126 °C

Q: Could you please provide reported melting point for "CC(C)c1ccc(NS(C)(=O)=O)c(C(C)C)c1NC(=O)CN1CCN(CCSc2nc3cccc(C(F)(F)F)c3o2)CC1.O=C(O)/C=C\C(=O)O.O=C(O)/C=C\C(=O)O" ? Thanks!
Result: 172 to 174 °C

Q: Could you please provide reported melting point for CCOCCOc1cc(C(C)C)c(NC(=O)CN2CCN(CCSc3nc4ccccc4o3)CC2)c(C(C)C)c1 [Example 78] ? Thanks!
Result: 92 to 95 °C

Q: Could you please provide reported melting point for CCSC1=C(NC(=O)CN2CCN(CCSc3nc4c(C)c(Cl)cc(C(C)C)c4o3)CC2)C=CC(C)(SCC)N1 (stereo not drawn) [Example 109] ? Thanks!
Result: 120 to 122 °C
